In this section we review reported cell proliferation values for a set of molecules.
# System: U2932 parental
# Procedure Details: cell proliferation relative to vehicle (% of vehicle); higher = less growth inhibition
# Condition Description: 50 nM; 72 h
Parameter Measured: cell proliferation

> print(dat)
                                   molecule  data.value
1  CC(C)N(CCCNC(=O)Nc1ccc(C(C)(C)C)cc1)C[C@H]1O[C@@H](n2cc(Br)c3c(N)ncnc32)[C@H](O)[C@@H]1O        96.7
2  Cc1cc(Nc2cc(N3CCN(C)CC3)nc(Sc3ccc(NC(=O)C4CC4)cc3)n2)n[nH]1 [VX-680 (Tozasertib, MK-0457)]        64.5
3  COc1ccc(C(=O)C2CCN(CC(=O)N(Cc3nc4c(c(=O)[nH]3)COCC4)CC3CC3)CC2)cc1        97.7
4  Nc1ncn([C@H]2C[C@H](O)[C@@H](CO)O2)c(=O)n1 [Decitabine]        85.1
5  Cc1c(NC(=O)OC[C@@H]2COCCN2)cn2ncnc(Nc3ccc4c(cnn4Cc4cccc(F)c4)c3)c12        97.2
6  O=C1NC(=O)C(c2ccccc2[N+](=O)[O-])=C1Nc1ccc(O)c(Cl)c1         108
7  O=C(/C=C\n1cnc(-c2cc(C(F)(F)F)cc(C(F)(F)F)c2)n1)NNc1cnccn1        82.9
8  COc1cc2nccc(Oc3ccc(NC(=O)C4(C(=O)Nc5ccc(F)cc5)CC4)cc3)c2cc1OC        95.4
